src = ChEMBL document CHEMBL4308841

# System: OVCAR-5
# run.description: Growth inhibition of human OVCAR5 cells incubated for 48 hrs by sulforhodamine B assay
# Assay type: functional, cell-based
# condition: OVCAR-5, 48 h, read-out: LC50 (the source's name)
outcome.measure: CC50

molecular_string=COc1cc(Cl)cc(-c2nn(-c3cccc(NC(=O)Nc4cc(C(F)(F)F)cc(C(F)(F)F)c4)c3)cc2-c2ccncc2)c1 result="> 100 µM"
molecular_string=O=C(Nc1cccc(-n2cc(-c3ccncc3)c(-c3cc(O)cc(Cl)c3)n2)c1)Nc1ccc(Cl)c(Cl)c1 result="5.42 µM"
molecular_string=O=C(Nc1cccc(-n2cc(-c3ccncc3)c(-c3cc(O)cc(Cl)c3)n2)c1)c1ccc(N2CCOCC2)c(C(F)(F)F)c1 result="> 100 µM"
molecular_string=COc1cc(Cl)cc(-c2nn(-c3cccc(NC(=O)c4ccc(N5CCOCC5)c(C(F)(F)F)c4)c3)cc2-c2ccncc2)c1 result="> 100 µM"
